experiment: Oral toxicity to mice; conditions: mouse, in vivo
readoutName: LD50

Take a look at these entries with their results.
>>> result("Cc1ccc(C(C(=O)OCc2cc3c(s2)CCCC3)C(C)C)cc1 (stereo not drawn)")
"> 1000 mg/kg"
>>> result("C#CCc1cc(C)c(COC(=O)C(c2ccc(Cl)cc2)C(C)C)c(C)c1 (stereo not drawn)")
"> 1000 mg/kg"
>>> result("C=C(C)C(C(=O)OCc1cccc(Oc2ccccc2)c1)c1ccc(Cl)cc1 (stereo not drawn)")
"> 1000 mg/kg"
>>> result("CC(C)C(C(=O)OCN1C(=O)c2ccccc2C1=O)c1ccc(Cl)cc1 (stereo not drawn)")
"> 1000 mg/kg"
>>> result("C=C(C)C(C(=O)OCc1cccc(Oc2ccccc2)c1)c1ccc(C)cc1 (stereo not drawn)")
"1000 mg/kg"
>>> result("COc1ccc(C(C(=O)OCc2coc(Cc3ccccc3)c2)C(C)C)cc1 (stereo not drawn)")
"900 mg/kg"
>>> result("CCC(C(=O)OCc1cccc(Oc2ccccc2)c1)c1ccc(C)cc1 (stereo not drawn)")
"> 1000 mg/kg"
>>> result("CCC(C(=O)OCc1coc(Cc2ccccc2)c1)c1ccccc1 (stereo not drawn)")
"> 1000 mg/kg"

What the record says about CC(C)C(C(=O)OCc1cccc(Oc2ccccc2)c1)c1ccc(Cl)cc1 (stereo not drawn) : LD50 is > 1000 mg/kg

----------
Provide the recorded LD50 for the entries that follow.
test: Oral toxicity to mice; conditions: mouse, in vivo

Here is how some compounds turned out for LD50.
>>> result("Cc1ccc(C(C(=O)OCc2ccc(Cc3ccco3)s2)C(C)C)cc1 (stereo not drawn)")
"> 1000 mg/kg"
>>> result("COc1ccc(C(C(=O)OCc2ccc(Oc3ccccc3)o2)C(C)C)cc1 (stereo not drawn)")
"> 1000 mg/kg"

Batch of 4 compounds: report LD50 for each.
1. Cc1ccc(C(C(=O)OCc2cccc(Oc3ccccc3)c2)C(C)C)cc1 (stereo not drawn)
2. CCC(C(=O)OCc1cccc(Oc2ccccc2)c1)c1ccc(OC)cc1 (stereo not drawn)
3. C#CCc1cc(C(C#C)OC(=O)C(CC)c2ccccc2)co1 (stereo not drawn)
4. C=C(C)C(C(=O)OCc1cccc(Oc2ccccc2)c1)c1ccc(OC)cc1 (stereo not drawn)

## Result
> 1000 mg/kg
> 2000 mg/kg
750 mg/kg
> 1000 mg/kg

Respectfully, I request LD50 for each entry included below.
1. CCC(C(=O)OCc1coc(Cc2ccccc2)c1)c1ccc(Cl)cc1 (stereo not drawn)
2. COc1ccc(C(C(=O)OCc2cccc(Oc3ccccc3)c2)C(C)C)cc1 (stereo not drawn)
3. CCC(C(=O)OCc1cccc(Oc2ccccc2)c1)c1ccccc1 (stereo not drawn) [compound 2, 3'-Phenoxybenzyl-α-ethylphenylacetate]

## Result
["940 mg/kg", "> 1000 mg/kg", "> 1000 mg/kg"]

----------
tested on: Larvae of Mosquito (Culex pipiens); assay: Insecticidal activity on larvae of mosquito (Experimental Example 2); format: in vivo; details: 24 h, read-out: LC50 (50% lethal concentration)
Exercise: for every item that follows, state its recorded log10(LC50).
In plain terms, each number is the log10 of measured LC50 in ng/mL.

Below, 7 compounds whose answers are already recorded.
>>> numericreadout("CC(C)C(C(=O)OC(C#N)c1cccc(Oc2ccccc2)c1)c1ccc(F)cc1 (centres unmarked)")
0.08
>>> numericreadout("C=C(C)C(C(=O)OCc1coc(Cc2ccccc2)c1)c1ccc(C)cc1 (centres unmarked)")
0.67
>>> numericreadout("C=C(C)C(C(=O)OCc1cccc(Oc2ccccc2)c1)c1cccc(Cl)c1 (centres unmarked)")
0.60
>>> numericreadout("CCC(C(=O)OCc1coc(Oc2ccccc2)c1)c1ccc(Cl)cc1 (centres unmarked)")
0.86
>>> numericreadout("C#CCc1ccc(COC(=O)C(CC)c2ccccc2)cc1 (stereo not drawn) [compound 10, 4'-Propargylbenzyl-α-ethylphenylacetate]")
0.48
>>> numericreadout("Cl[C@H]1[C@H](Cl)[C@@H](Cl)[C@@H](Cl)[C@H](Cl)[C@H]1Cl [Lindane, lindane, reference compound]")
2.34
>>> numericreadout("Cc1ccc(C(C(=O)OCc2ccc(Cc3ccco3)s2)C(C)C)cc1 (centres unmarked)")
0.59

Alright, here's another compound for you.
Form: compound = C=C(C)C(C(=O)OCc1cccc(Oc2ccccc2)c1)c1ccc(CC)cc1 (centres unmarked) ; log10(LC50) = 0.75

----------
test system: oriental house flies; test: Potentiation of insecticidal activity by addition of piperonyl butoxide, topical application (Experimental Example 6); assay type: in vivo; conditions: piperonyl butoxide 5 times active ingredient; acetone solution on thoracic dorsal plate
Quick rule: Potentiation magnification of insecticidal activity by the addition of piperonyl butoxide of at least 5 means yes (1), below that means no (0).

>>> category("Cc1ccc(C(C(=O)OCc2ccc(Cc3ccccc3)cc2)C(C)C)cc1 (stereo not shown) [compound 226]")
"no (0)"
>>> category("C=C(C)C(C(=O)OCc1cccc(Oc2ccccc2)c1)c1ccc(C)cc1 (stereo not shown) [compound 125]")
"yes (1)"
>>> category("CCC(C(=O)OCc1cccc(Oc2ccccc2)c1)c1ccc(Br)cc1 (stereo not shown) [compound 178]")
"yes (1)"
>>> category("CCC(C(=O)OCc1cccc(Oc2ccccc2)c1)c1ccc(C)cc1 (stereo not shown) [compound 176]")
"yes (1)"
>>> category("CCC(C(=O)OCc1cccc(Oc2ccccc2)c1)c1ccc(Cl)cc1 (stereo not shown) [compound 177]")
"yes (1)"

// switching to the query molecule
## Task In plain terms: is recorded Potentiation magnification of insecticidal activity by the addition of piperonyl butoxide at least 5 for Cc1ccc(C(C(=O)OCc2coc(Oc3ccccc3)c2)C(C)C)cc1 (stereo not shown) [compound 195] ?
## Result yes (1)

----------
tested on: Larvae of Mosquito (Culex pipiens); assay: Insecticidal activity on larvae of mosquito (Experimental Example 2); type: in vivo; conditions: 24 h, read-out: LC50 (50% lethal concentration)
LC50 under 4 ng/mL gets 1, anything at or over 4 ng/mL gets 0.

>>> category("CCC(C(=O)OCc1coc(Cc2ccccc2)c1)c1ccccc1C (stereo not drawn) [compound 110]")
0
>>> category("C=C(C)C(C(=O)OCc1coc(Oc2ccccc2)c1)c1ccc(C)cc1 (stereo not drawn) [compound 115]")
0
>>> category("CC(C)C(C(=O)OCc1coc(Cc2ccccc2)c1)c1ccc(Br)cc1 (stereo not drawn) [compound 212]")
1
>>> category("C=C(C)C(C(=O)OCc1cccc(Oc2ccccc2)c1)c1ccc(F)cc1 (stereo not drawn) [compound 121]")
1
>>> category("Cc1ccc(C(C(=O)OC(C#N)c2cccc(Oc3ccccc3)c2)C(C)C)cc1 (stereo not drawn) [compound 227]")
1

## Task Decide: LC50 of C=C(C)C(C(=O)OCc1coc(Cc2ccco2)c1)c1ccc(C)cc1 (stereo not drawn) [compound 113] strictly below 4 ng/mL?
## Result 0

## Task Strictly below 4 ng/mL in LC50? CC(C)C(C(=O)OCc1cccc(Oc2ccccc2)c1)c1ccc(F)cc1 (stereo not drawn) [compound 210]
## Result 1

## Task Is 4 ng/mL strictly greater than the compound's reported LC50? compound: CCC(C(=O)OCc1coc(Cc2ccccc2)c1)c1cccc(C)c1 (stereo not drawn) [compound 104]
## Result 0

## Task For CCC(C(=O)OCc1coc(Cc2ccccc2)c1)c1ccccc1 (stereo not drawn) [compound 1] , is the recorded LC50 below the cut-off of 4 ng/mL?
## Result 1

----------
Provide the reported Potentiation magnification of insecticidal activity by the addition of piperonyl butoxide of each item.
system: oriental house flies; assay: Potentiation of insecticidal activity by addition of piperonyl butoxide, topical application (Experimental Example 6); format: in vivo; details: piperonyl butoxide 5 times active ingredient; acetone solution on thoracic dorsal plate
Numbers only.

>>> numericreadout("CC(C)C(C(=O)OCc1coc(Cc2ccccc2)c1)c1ccc(F)cc1 (stereo not drawn) [compound 208]")
5.2

For every item in the list below, what is its measured Potentiation magnification of insecticidal activity by the addition of piperonyl butoxide?
1. Cc1ccc(C(C(=O)OCc2cc3c(s2)CCCC3)C(C)C)cc1 (stereo not drawn) [compound 150]
2. CCC(C(=O)OCc1coc(Cc2ccccc2)c1)c1ccc(Cl)cc1 (stereo not drawn) [compound 184]
3. C#CCc1ccc(C(C#C)OC(=O)C(c2ccc(Cl)cc2)C(C)C)o1 (stereo not drawn) [compound 201]
4. COc1ccc(C(C(=O)OCc2ccc(Oc3ccccc3)o2)C(C)C)cc1 (stereo not drawn) [compound 63]
5. COc1ccc(C(C(=O)OCc2coc(Cc3ccccc3)c2)C(C)C)cc1 (stereo not drawn) [compound 22]
6. C=C(C)C(C(=O)OCc1cccc(Oc2ccccc2)c1)c1ccc(OC)cc1 (stereo not drawn) [compound 82]
7. CC(C)C(C(=O)OCc1coc(Cc2ccccc2)c1)c1cccc(Cl)c1 (stereo not drawn) [compound 204]
8. CC(C)C(C(=O)OCc1cccc(Oc2ccccc2)c1)c1ccc(F)cc1 (stereo not drawn) [compound 210]

## Result
1: 4.2; 2: 5.6; 3: 7.0; 4: 4.8; 5: 5.0; 6: 6.7; 7: 4.7; 8: 4.8

The reported numbers originate from patent US4031235A.
